- Target desc: JAK1 (Homo sapiens, UniProt P23458)
- Construct: purchased Invitrogen
- Sequence (P23458 whole entry): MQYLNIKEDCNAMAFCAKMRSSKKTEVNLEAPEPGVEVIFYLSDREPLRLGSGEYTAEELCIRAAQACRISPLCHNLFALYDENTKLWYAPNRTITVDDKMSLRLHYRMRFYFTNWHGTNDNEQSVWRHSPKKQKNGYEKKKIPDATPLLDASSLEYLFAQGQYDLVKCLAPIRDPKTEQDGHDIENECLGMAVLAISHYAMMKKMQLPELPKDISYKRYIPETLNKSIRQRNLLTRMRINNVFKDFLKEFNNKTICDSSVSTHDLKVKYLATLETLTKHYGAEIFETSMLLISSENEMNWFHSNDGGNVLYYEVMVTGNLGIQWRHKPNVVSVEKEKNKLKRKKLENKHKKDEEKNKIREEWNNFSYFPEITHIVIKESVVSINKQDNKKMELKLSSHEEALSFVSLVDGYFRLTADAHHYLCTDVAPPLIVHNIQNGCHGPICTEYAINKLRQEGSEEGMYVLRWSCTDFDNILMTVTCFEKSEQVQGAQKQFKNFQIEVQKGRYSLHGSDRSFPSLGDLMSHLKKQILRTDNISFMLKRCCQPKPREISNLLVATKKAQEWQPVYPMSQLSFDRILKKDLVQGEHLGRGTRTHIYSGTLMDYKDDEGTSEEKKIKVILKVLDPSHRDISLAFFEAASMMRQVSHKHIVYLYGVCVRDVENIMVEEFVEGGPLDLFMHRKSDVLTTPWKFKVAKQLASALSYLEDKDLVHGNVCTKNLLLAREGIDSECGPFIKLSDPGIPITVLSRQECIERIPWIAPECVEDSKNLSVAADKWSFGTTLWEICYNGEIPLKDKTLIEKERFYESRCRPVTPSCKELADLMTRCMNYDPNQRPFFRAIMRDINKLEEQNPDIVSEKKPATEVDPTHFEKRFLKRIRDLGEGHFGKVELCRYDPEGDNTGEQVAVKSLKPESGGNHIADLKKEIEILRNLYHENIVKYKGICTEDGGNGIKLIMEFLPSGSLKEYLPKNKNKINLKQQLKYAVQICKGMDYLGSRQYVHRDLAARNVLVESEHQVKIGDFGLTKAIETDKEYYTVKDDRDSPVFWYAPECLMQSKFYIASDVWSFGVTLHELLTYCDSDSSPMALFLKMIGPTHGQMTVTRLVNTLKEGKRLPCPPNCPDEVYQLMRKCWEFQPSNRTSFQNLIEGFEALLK
- Experiment notes: JAK1 enzyme inhibition test (LANCE method)
- Type: biochemical
- Experimental setup: 1 μM test compound; read-out: JAK1 enzyme inhibitory activity (%, 1 μM)
Assay endpoint: inhibition at 1 µM (%)

COC1(c2cc(-c3cn(-c4c(F)cccc4F)c(=O)c4c(N)n[nH]c34)nn2C)CN(C(C)=O)C1 = 95
CC(C)N(C)c1cc(-c2cn(-c3c(F)cccc3C#N)c(=O)c3c(N)n[nH]c23)nn1C = 97
Cn1nc(-c2cn(C3CCCC3(C)C)c(=O)c3c(N)n[nH]c23)cc1N1CCOCC1 (stereo not shown) [Example 76] = 99
Cn1nc(-c2cn(-c3c(F)cccc3C#N)c(=O)c3c(N)n[nH]c23)cc1C(C)(C)O = 98

====

- Target desc: JAK2 (Homo sapiens)
- Construct: purchased Invitrogen
- Experiment notes: JAK2 enzyme inhibition test (LANCE method)
- Format: biochemical
- Experimental setup: 1 μM test compound; read-out: JAK2 enzyme inhibitory activity (%, 1 μM)
- Procedure: JAK2 enzyme inhibitory activity of test compounds was measured by the LANCE method (PerkinElmer). First, a test compound diluted with assay buffer (50 mM HEPES (pH 7.5), 10 mM MgCl2, 1 mM EGTA, 2 mM DTT, 0.01% Tween20, 0.01% BSA) was added to a 384-well plate by 2 μL each. Then, a JAK2 (Invitrogen) solution and a fluorescence-labeled peptide substrate (ULight-JAK1, PerkinElmer) solution diluted with assay buffer to 6 ng/mL and 300 nM, respectively, were added by 2 μL each. […]
Assay endpoint: inhibition at 1 µM (%)

COC[C@H]1CCCN1c1cc(-c2cn(-c3c(F)cccc3F)c(=O)c3c(N)n[nH]c23)nn1C [Example 128] = 98
CC(C)[C@@H](C)n1cc(-c2cc(C(C)(C)O)n(C)n2)c2[nH]nc(N)c2c1=O [Example 100] = 65
Cn1nc(-c2cn(C(C3CC3)C3CC3)c(=O)c3c(N)n[nH]c23)cc1C(F)(F)F [Example 165] = 98
COCCn1nc(-c2cn([C@@H](C)C(C)C)c(=O)c3c(N)n[nH]c23)cc1C(C)(C)O [Example 36] = 80

====

- Target desc: JAK1 (Homo sapiens)
- Construct: purchased Invitrogen
- Experiment notes: JAK1 enzyme inhibition test (LANCE method)
- Assay type: biochemical
- Experimental setup: 1 μM test compound; read-out: JAK1 enzyme inhibitory activity (%, 1 μM)
Assay endpoint: inhibition at 1 µM (%)

CC(C)[C@H](C)n1cc(-c2cc(N3CCN(S(=O)(=O)C(C)C)CC3)n(C)n2)c2[nH]nc(N)c2c1=O [Example 102] = 97
CO[C@H]1CCN(c2cc(-c3cn([C@@H](C)C(C)C)c(=O)c4c(N)n[nH]c34)nn2C)C1 [Example 25] = 98
CC(C)[C@H](C)n1cc(-c2cc(N(C)C3CCCC3)n(C)n2)c2[nH]nc(N)c2c1=O [Example 134] = 97
CC(C)[C@H](C)n1cc(-c2cc(N3CCN(C)CC3)n(C)n2)c2[nH]nc(N)c2c1=O [Example 10] = 96

====

- Target desc: JAK2 (Homo sapiens, UniProt O60674)
- Construct: purchased Invitrogen
- Sequence (O60674 whole entry): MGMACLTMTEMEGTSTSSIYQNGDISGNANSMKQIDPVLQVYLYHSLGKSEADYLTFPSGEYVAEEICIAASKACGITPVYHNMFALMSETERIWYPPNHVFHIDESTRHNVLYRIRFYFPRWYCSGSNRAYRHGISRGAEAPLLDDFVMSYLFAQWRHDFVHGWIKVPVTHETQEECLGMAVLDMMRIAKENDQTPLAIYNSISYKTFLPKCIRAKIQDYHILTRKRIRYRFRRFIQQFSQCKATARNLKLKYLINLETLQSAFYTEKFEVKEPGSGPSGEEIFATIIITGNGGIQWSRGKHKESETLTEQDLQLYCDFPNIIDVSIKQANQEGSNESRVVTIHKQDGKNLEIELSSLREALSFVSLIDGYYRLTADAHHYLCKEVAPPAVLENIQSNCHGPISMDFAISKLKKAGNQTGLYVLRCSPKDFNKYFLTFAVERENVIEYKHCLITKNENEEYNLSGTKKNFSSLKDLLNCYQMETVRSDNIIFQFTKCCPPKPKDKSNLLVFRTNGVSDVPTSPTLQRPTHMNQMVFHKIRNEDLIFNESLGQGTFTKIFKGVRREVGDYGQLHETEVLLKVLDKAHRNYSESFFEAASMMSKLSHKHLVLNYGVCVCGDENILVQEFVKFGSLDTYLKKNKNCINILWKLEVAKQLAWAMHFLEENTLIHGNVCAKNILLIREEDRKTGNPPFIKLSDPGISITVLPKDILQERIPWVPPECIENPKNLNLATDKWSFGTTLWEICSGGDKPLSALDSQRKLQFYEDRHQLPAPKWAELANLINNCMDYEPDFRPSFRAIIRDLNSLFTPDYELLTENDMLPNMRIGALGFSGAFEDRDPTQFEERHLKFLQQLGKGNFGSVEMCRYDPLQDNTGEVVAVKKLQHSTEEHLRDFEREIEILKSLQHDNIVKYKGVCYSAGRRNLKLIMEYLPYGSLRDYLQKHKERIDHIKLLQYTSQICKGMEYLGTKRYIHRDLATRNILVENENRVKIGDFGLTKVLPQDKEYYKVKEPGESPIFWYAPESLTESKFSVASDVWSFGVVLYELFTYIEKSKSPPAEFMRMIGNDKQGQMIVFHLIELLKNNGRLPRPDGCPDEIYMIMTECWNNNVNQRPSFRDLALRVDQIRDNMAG
- Experiment notes: JAK2 enzyme inhibition test (LANCE method)
- Type: biochemical
- Experimental setup: 1 μM test compound; read-out: JAK2 enzyme inhibitory activity (%, 1 μM)
Assay endpoint: inhibition at 1 µM (%)

CC(C)[C@H](C)n1cc(-c2cc(N3CCCCC3=O)n(C)n2)c2[nH]nc(N)c2c1=O = 97
CNC(=O)c1ccc(-c2cc(-c3cn([C@@H](C)C(C)C)c(=O)c4c(N)n[nH]c34)nn2C)cc1 = 98
COC(C)(C)c1cc(-c2cn([C@@H](C)C(C)C)c(=O)c3c(N)n[nH]c23)nn1C = 99
CNC[C@H]1CCCN1c1cc(-c2cn(C(C3CC3)C3CC3)c(=O)c3c(N)n[nH]c23)nn1C = 98
C[C@H](C1CC1)n1cc(-c2cc(N3CCOCC3)n(C)n2)c2[nH]nc(N)c2c1=O = 93
CO[C@@H]1CCN(c2cc(-c3cn([C@@H](C)C(C)C)c(=O)c4c(N)n[nH]c34)nn2C)C1 = 98
C[C@H](C1CC1)n1cc(-c2cc(N3CCC(C)(O)CC3)n(C)n2)c2[nH]nc(N)c2c1=O = 87
